SUBJECT OF TEST: EGFR^L858R/T790M/C797S kinase (Homo sapiens (Human), UniProt P00533, C797S/L858R/T790M)
Sequence (P00533 25-1210 T790M/C797S/L858R): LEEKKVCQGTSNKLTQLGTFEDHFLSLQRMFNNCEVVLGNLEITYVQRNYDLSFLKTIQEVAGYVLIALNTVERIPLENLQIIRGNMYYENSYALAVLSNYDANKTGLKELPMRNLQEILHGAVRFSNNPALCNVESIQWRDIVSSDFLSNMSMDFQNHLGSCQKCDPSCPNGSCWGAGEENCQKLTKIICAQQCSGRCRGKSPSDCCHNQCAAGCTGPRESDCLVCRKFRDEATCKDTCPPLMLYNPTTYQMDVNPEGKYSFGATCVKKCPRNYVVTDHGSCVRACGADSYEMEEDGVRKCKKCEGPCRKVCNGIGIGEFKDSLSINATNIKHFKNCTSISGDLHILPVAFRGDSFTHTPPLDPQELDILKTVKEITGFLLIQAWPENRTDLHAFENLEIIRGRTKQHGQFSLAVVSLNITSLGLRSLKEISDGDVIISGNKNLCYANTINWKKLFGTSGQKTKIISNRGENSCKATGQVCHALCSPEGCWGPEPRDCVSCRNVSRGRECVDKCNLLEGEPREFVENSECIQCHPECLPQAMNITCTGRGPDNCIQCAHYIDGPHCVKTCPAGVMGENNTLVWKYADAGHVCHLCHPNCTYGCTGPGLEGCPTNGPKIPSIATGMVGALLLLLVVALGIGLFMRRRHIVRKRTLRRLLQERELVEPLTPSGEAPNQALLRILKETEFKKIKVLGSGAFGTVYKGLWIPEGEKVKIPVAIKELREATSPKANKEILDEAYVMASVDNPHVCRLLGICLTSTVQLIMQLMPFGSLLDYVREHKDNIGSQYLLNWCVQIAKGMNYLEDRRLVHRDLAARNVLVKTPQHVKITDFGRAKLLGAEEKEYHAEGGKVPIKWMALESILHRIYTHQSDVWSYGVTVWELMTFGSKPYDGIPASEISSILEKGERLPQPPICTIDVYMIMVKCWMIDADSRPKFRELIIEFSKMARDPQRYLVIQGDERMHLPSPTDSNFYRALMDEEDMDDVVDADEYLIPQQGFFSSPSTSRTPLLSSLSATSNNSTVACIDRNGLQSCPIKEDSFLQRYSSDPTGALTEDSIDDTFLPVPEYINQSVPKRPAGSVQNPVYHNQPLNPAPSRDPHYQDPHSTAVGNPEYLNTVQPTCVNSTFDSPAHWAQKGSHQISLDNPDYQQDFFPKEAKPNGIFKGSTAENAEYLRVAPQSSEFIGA
ASSAY EXPLANATION: EGFR^L858R/T790M/C797S kinase inhibitory activity experiment
CONDITION SUMMARY: in vitro
# pIC50 per record follows
Convention used: pIC50 is expressed as -log10 of the molar concentration.

Past entries and their recorded results:
CCc1cc(Nc2ncc(Cl)c(Nc3ccc(C)c(C)c3P(C)(C)=O)n2)c(OC)cc1N1CCC2(CC1)CC(N(C)C)C2 9.06
CCc1cc(Nc2ncc(Cl)c(Nc3ccc(C)c(C)c3P(C)(C)=O)n2)c(OC)cc1N1CC2(CCN(CC)CC2)C1 9.09
CCc1cc(Nc2ncc(Cl)c(Nc3cc(C)c(C)cc3P(C)(C)=O)n2)c(OC)cc1N1CCC(N2C[C@@H](C)N(C)[C@@H](C)C2)CC1 10.15
CCc1cc(Nc2ncc(Cl)c(Nc3ccc(C)c(C)c3P(C)(C)=O)n2)c(OC)cc1N1CC2(CCN(CC3CC3)CC2)C1 9.13
CCc1cc(Nc2ncc(Cl)c(Nc3cc(Cl)c(Cl)cc3P(C)(C)=O)n2)c(OC)cc1N1CC2(CCN(CC(F)F)CC2)C1 9.23

Now for another entry.
# get_value(readout='pIC50', item= `CCc1cc(Nc2ncc(Cl)c(Nc3ccc(C)c(C)c3P(C)(C)=O)n2)c(OC)cc1N1CCC2(CCN(C)CC2)CC1` )
9.53

* * *

ASSAY EXPLANATION: Stability testing of liver microsomes, mouse
Type: in vitro ADME
CONDITION SUMMARY: pH 7.41; mouse liver microsomes
VALUE TYPE: CLint scaled at 1 µM (mL/min/kg)
Please reply with the bare figure in mL/min/kg and do not write the unit itself.

# get_value(readout='CLint scaled at 1 µM', item= CCc1cc(Nc2ncc(Cl)c(Nc3ccc(C)c(C)c3P(C)(C)=O)n2)c(OC)cc1N1CCC(N2CCN(C)CC2)CC1 [Comparative Compound A, reference compound] )
18.2

* * *

SUBJECT OF TEST: EGFR^L858R/T790M/C797S kinase (Homo sapiens (Human), UniProt P00533, C797S/L858R/T790M)
ASSAY EXPLANATION: EGFR^L858R/T790M/C797S kinase inhibitory activity experiment
CONDITION SUMMARY: in vitro
Threshold 10 nM. IC50 below it: Fulfilled. IC50 at it or above: Not fulfilled.

Use these answered entries as a reference point.
MOLECULE	LABEL CLASS
COc1cc(N2CC3(CCN(C)CC3)C2)c(C)cc1Nc1ncc(Cl)c(Nc2cc(C)c(C)cc2P(C)(C)=O)n1	Not fulfilled
COc1cc(N2CCC(N3CCN(C)CC3)CC2)c(C)cc1Nc1ncc(Cl)c(Nc2ccc(C)c(C)c2P(C)(C)=O)n1	Fulfilled
CCc1cc(Nc2ncc(Cl)c(Nc3ccc(C)c(C)c3P(C)(C)=O)n2)c(OC)cc1N1CCC(N2CCN(C)CC2)CC1 [Comparative Compound A, reference compound]	Fulfilled
COc1cc(N2CCC3(CC2)CC(N(C)C)C3)c(C)cc1Nc1ncc(Cl)c(Nc2ccc(C)c(C)c2P(C)(C)=O)n1	Fulfilled
COc1cc(N2CCC3(CC2)CC(N(C)C)C3)c(Cl)cc1Nc1ncc(Cl)c(Nc2cc(C)c(C)cc2P(C)(C)=O)n1	Fulfilled
CCc1cc(Nc2ncc(Cl)c(Nc3cc(C)c(C)cc3P(C)(C)=O)n2)c(OC)cc1N1CCC2(CC1)CN(C)C2	Not fulfilled

Take the molecule `COc1cc(N2CC3(CCC(N(C)C)CC3)C2)ccc1Nc1ncc(Cl)c(Nc2ccc(C)c(C)c2P(C)(C)=O)n1` and say whether its IC50 is less than 10 nM.
Not fulfilled

Take the molecule `CCc1cc(Nc2ncc(Cl)c(Nc3ccc(C)c(C)c3P(C)(C)=O)n2)c(OC)cc1N1CC2(CCN(CC(F)F)CC2)C1` and say whether its IC50 is less than 10 nM.
Fulfilled

Take the molecule `CCc1cc(Nc2ncc(Cl)c(Nc3cc(Cl)c(Cl)cc3P(C)(C)=O)n2)c(OC)cc1N1CCC2(CC1)CC(N(C)C)C2` and say whether its IC50 is less than 10 nM.
Fulfilled

Take the molecule `COc1cc(N2CCC3(CC2)CC(N(C)C)C3)c(F)cc1Nc1ncc(Cl)c(Nc2cc(C)c(C)cc2P(C)(C)=O)n1` and say whether its IC50 is less than 10 nM.
Not fulfilled

Reference source for all entries: patent US20250101052A1
